system: NCI-H522; assay: NCI tumour cell line growth inhibition, 48 h
Calls of active or inactive are those of the source. Cut-off read from the data, not from the text of the source: active = GI50 up to about 1.1 µM and inactive = higher.
readout_label: GI50

Example entries and their recorded answers appear below.
Return reported GI50; argument: CC(Nc1cccc(Cl)c1)c1ccncc1 (stereo unspecified)
83.6 µM (inactive)

Return reported GI50; argument: COc1cc(OCCN(C)C)c2[nH]c(C(=O)N3CC(CCl)c4ccc(N)cc43)cc2c1 (stereo unspecified)
0.0139 µM (active)

Return reported GI50; argument: O=C1NC(Nc2ccccc2Cl)=N/C1=C\c1c(Cl)cccc1Cl
18.7 µM (inactive)

Return reported GI50; argument: CN1N=C(N)c2cn(C3OC(COP(=O)(O)O)C(O)C3O)c3ncnc1c23 (stereo unspecified)
2050 µM (inactive)

Return reported GI50; argument: COc1cc(/C=C2\C[C@H]3[C@@H]4CC=C5C[C@@H](OC(C)=O)CC[C@]5(C)[C@H]4CC[C@]3(C)\C2=N\O)cc(OC)c1OC
4.85 µM (inactive)

With those in mind, consider the next compound.
Return reported GI50; argument: Cc1ccccc1/C=C/c1csnn1
> 100 µM (inactive)

----------
tested on: UO-31; assay: NCI tumour cell line growth inhibition, 48 h
The source made the active and inactive calls. Cut-off read from the data, not from the text of the source: active = GI50 up to about 1.1 µM and inactive = higher.
Field 'call' accepts active, inactive

Could you kindly confirm the outcome this assay logged for O=C(O)[C@H](NS(=O)(=O)c1ccc2ccccc2c1)c1ccccc1 ?
inactive

Could you kindly confirm the outcome this assay logged for O=C1c2cc([N+](=O)[O-])cc3cc([N+](=O)[O-])cc(c23)C(=O)N1CCCNCCNCCCN1C(=O)c2cc([N+](=O)[O-])cc3cc([N+](=O)[O-])cc(c23)C1=O ?
active

Could you kindly confirm the outcome this assay logged for CCOC(=O)CCC(=O)C1c2cccc(O)c2C(=O)c2c(O)cccc21 ?
active

Could you kindly confirm the outcome this assay logged for COC(=O)[C@@H]1CCc2nc3ccccc3c(=O)n21 ?
inactive

Could you kindly confirm the outcome this assay logged for NC1c2c(Br)sc(N3CCCC3)c2C(=O)C1O (configuration not stated) ?
inactive

Next:
Could you kindly confirm the outcome this assay logged for CSc1ccc(/C=C2\N=C(c3ccccc3)N(NC(=O)c3c(Cl)c(Cl)c(Cl)c(Cl)c3-c3nc4ccccc4[nH]3)C2=O)cc1 ?
inactive

Could you kindly confirm the outcome this assay logged for CC(C)(C)C1CCC2c3c([nH]c4ccccc34)C3C(=O)N(c4ccc(C(=O)O)cc4)C(=O)C3C2C1 (configuration not stated) ?
inactive

Could you kindly confirm the outcome this assay logged for COC(=O)c1ccccc1CC1Cc2cc3c(cc2C1)CCC3 ?
inactive

Could you kindly confirm the outcome this assay logged for CCNCC(O)c1ccc(N)c([N+](=O)[O-])c1 (configuration not stated) ?
inactive

Could you kindly confirm the outcome this assay logged for COc1ccc(-c2ccccc2)c(N/N=C2\CCCNC2=O)c1 ?
inactive

Could you kindly confirm the outcome this assay logged for NC1=Nc2ccccc2Sc2nncn21 ?
inactive

----------
test system: HOP-92; test: NCI tumour cell line growth inhibition, 48 h
Active and inactive are the calls of the source. Rule as the data show it: active = GI50 up to about 1.1 µM and inactive = higher.
Field 'call' accepts true (1) for active, false (0) for inactive

Sample answers from the record:
Could you kindly confirm the outcome this assay logged for CN(C)CCNc1ccc([N+](=O)[O-])c2sc3ccccc3c(=O)c12 ?
false (0)

Could you kindly confirm the outcome this assay logged for C[C@@H]1S[C@H](c2c(Cl)cccc2Cl)N2Cc3ccccc3N=C12 ?
false (0)

Could you kindly confirm the outcome this assay logged for OC(c1ccc(F)cc1)C(F)(F)c1nc2ccccc2o1 (configuration not stated) ?
false (0)

Could you kindly confirm the outcome this assay logged for CC(Nc1cccc(Cl)c1)c1ccncc1 (configuration not stated) ?
false (0)

Could you kindly confirm the outcome this assay logged for NC(C(=O)O)c1cc(O)no1 (configuration not stated) ?
false (0)

Could you kindly confirm the outcome this assay logged for CCCC(CCC)C(=O)O ?
false (0)

Next:
Could you kindly confirm the outcome this assay logged for O=c1ccc(=O)c2c(=O)c3ccccc3c(=O)c1=2 ?
false (0)

Could you kindly confirm the outcome this assay logged for CCOC(=O)c1csc(CCCCCCc2nc(C(=O)OCC)cs2)n1 ?
false (0)

Could you kindly confirm the outcome this assay logged for COc1ccc(-c2ccccc2)c(N/N=C2\CCCNC2=O)c1 ?
false (0)

Could you kindly confirm the outcome this assay logged for C[C@H]1[C@H](N2CCCC2)O[Si](C(C)(C)C)(C(C)(C)C)[C@@H]1C ?
true (1)

Could you kindly confirm the outcome this assay logged for c1ccc(CN2CCC3(CC2)SSC2(CCN(Cc4ccccc4)CC2)S3)cc1 ?
false (0)

Could you kindly confirm the outcome this assay logged for CCCCCCCCCCCC[S+](C)C ?
false (0)

Could you kindly confirm the outcome this assay logged for O=[N+]([O-])C(=C(N1CCOCC1)N1CCOCC1)/C(Cl)=C(\Cl)Br ?
false (0)

Could you kindly confirm the outcome this assay logged for C=C1C(=O)OC2/C=C(\C=O)CC/C=C(\C)C(O)C[C@@H]12 (some centres not stated) ?
false (0)

Could you kindly confirm the outcome this assay logged for COc1ccc([C@H]2CC3C(=O)N(c4ccc(OC)cc4)C(=O)C3c3[nH]c4ccccc4c32)cc1 (some centres not stated) ?
false (0)

Could you kindly confirm the outcome this assay logged for O=C1C=C(C2=C(C3=CC(=O)c4ccccc4C3=O)C(=O)c3ccccc3C2=O)C(=O)c2ccccc21 ?
false (0)

Could you kindly confirm the outcome this assay logged for NS(=O)(=O)c1nnc(NS(=O)(=O)c2cccc3cccnc23)s1 ?
false (0)

Could you kindly confirm the outcome this assay logged for CCOC(=O)c1c2ccccc2n2c(=O)n(-c3ccc(OC)cc3)nnc12 ?
false (0)

Could you kindly confirm the outcome this assay logged for CC(CC(=O)CO[C@H]1[C@H](O)[C@@H](O)[C@@H](O)[C@@H]2NC(=O)c3c(cc4c(c3O)OCO4)[C@H]21)OC1OC(CO)C(O)C(O)C1O (some centres not stated) ?
true (1)

Could you kindly confirm the outcome this assay logged for O=C(CC1(O)C(=O)Nc2ccc(Br)cc21)c1cccc([N+](=O)[O-])c1 (configuration not stated) ?
false (0)

Could you kindly confirm the outcome this assay logged for O=C1CCCCN1C(=O)c1ccc([N+](=O)[O-])cc1 ?
false (0)

Could you kindly confirm the outcome this assay logged for Cc1ccc(C(=O)N/N=C(\N=N\c2ccccc2)c2ccc(N(CCC#N)CCC#N)cc2C)cc1 ?
false (0)

----------
tested on: EKVX; test: NCI tumour cell line growth inhibition, 48 h
Active and inactive are the calls of the source. Cut-off read from the data, not from the text of the source: active = GI50 up to about 1.1 µM and inactive = higher.
Field 'call' accepts true = active, false = inactive

Could you kindly confirm the outcome this assay logged for COc1ccc2[nH]c3c(c2c1)[C@H]1CCC(C(C)(C)C)C[C@H]1[C@H]1C(=O)N(c2ccccc2)C(=O)[C@@H]31 (stereo partly specified) ?
false

Next:
Could you kindly confirm the outcome this assay logged for CN(C)CC1CC/C(=C\c2ccc(Cl)cc2)C1=O (stereo unspecified) ?
false

Could you kindly confirm the outcome this assay logged for COC(=O)[C@]1(C)CCC[C@@]2(C)C1CC[C@]13C=C(C(C)C)[C@H](CC21)CC3(Cl)C#N (stereo partly specified) ?
false

Could you kindly confirm the outcome this assay logged for [O-]/N=[N+](/[O-])C1CCCCC1=[N+]1CCOCC1 (stereo unspecified) ?
false

Could you kindly confirm the outcome this assay logged for N#Cc1c(N)c(C(=O)O)nn(-c2cccc(C(F)(F)F)c2)c1=O ?
false

Could you kindly confirm the outcome this assay logged for O=C(Cn1c(-c2ccccc2)cc2ccccc21)N1CCOCC1 ?
false

Could you kindly confirm the outcome this assay logged for COc1cc(/C=C2\C[C@H]3[C@@H]4CC=C5C[C@@H](OC(C)=O)CC[C@]5(C)[C@H]4CC[C@]3(C)\C2=N\O)cc(OC)c1OC ?
false

Could you kindly confirm the outcome this assay logged for Nc1cc(CO)cc(Nc2nc3ccc(Cl)cc3c3[nH]c4ccccc4c23)c1 ?
false

----------
tested on: UACC-62; experiment: NCI tumour cell line growth inhibition, 48 h
The source made the active and inactive calls. Rule as the data show it: active = GI50 up to about 1.1 µM and inactive = higher.
The entries below come with measured GI50 values attached.

Example entries and their recorded answers appear below.
State its GI50 on UACC-62: N#CCCC1(CCC#N)CCCCCCC(CCC#N)(CCC#N)C(=O)C1=O
> 100 µM (inactive)

State its GI50 on UACC-62: CC(/C=C/c1ccc([N+](=O)[O-])o1)=N/N1CC(CN2CCOCC2)OC1=O (configuration not stated)
17.3 µM (inactive)

State its GI50 on UACC-62: O=C(NCCN(CCNC(=O)c1cccc(=O)n1O)CCNC(=O)c1cccc(=O)n1O)c1cccc(=O)n1O
> 100 µM (inactive)

State its GI50 on UACC-62: CN(C)Cc1cc(C(C)(C)C)cc(C2CCCCC2)c1O
16.1 µM (inactive)

State its GI50 on UACC-62: COC(=O)c1cc(/C=C/C(=O)Cc2ccccc2)cn1S(=O)(=O)c1ccccc1
> 100 µM (inactive)

Next:
State its GI50 on UACC-62: CC1(C)N=C(/C=N/O)C(C)(C)N1O
> 100 µM (inactive)

State its GI50 on UACC-62: FC(F)(F)C1(Br)C(c2ccccc2)=C1c1ccccc1
15.8 µM (inactive)

State its GI50 on UACC-62: O=CC[C@H]1CCc2ccccc2C12CCC(=O)CC2
92 µM (inactive)

State its GI50 on UACC-62: CN1c2ccccc2C2=C(c3ccccc3)CC[C@@H](C(=O)N3C4CC5CC[C@@]4(CS3(=O)=O)C5(C)C)[C@@H]21 (some centres not stated)
> 100 µM (inactive)

State its GI50 on UACC-62: CSc1c(C#N)c(O)n(-c2ccc(C)cc2)c(=O)c1C#N
> 100 µM (inactive)
